Source of measurements: ChEMBL document CHEMBL5291721

- System Under Test: Gamma-aminobutyric acid receptor subunit alpha-1 (Rattus norvegicus, UniProt P62813); further: assay procedure not described here
- Sequence (P62813 whole entry): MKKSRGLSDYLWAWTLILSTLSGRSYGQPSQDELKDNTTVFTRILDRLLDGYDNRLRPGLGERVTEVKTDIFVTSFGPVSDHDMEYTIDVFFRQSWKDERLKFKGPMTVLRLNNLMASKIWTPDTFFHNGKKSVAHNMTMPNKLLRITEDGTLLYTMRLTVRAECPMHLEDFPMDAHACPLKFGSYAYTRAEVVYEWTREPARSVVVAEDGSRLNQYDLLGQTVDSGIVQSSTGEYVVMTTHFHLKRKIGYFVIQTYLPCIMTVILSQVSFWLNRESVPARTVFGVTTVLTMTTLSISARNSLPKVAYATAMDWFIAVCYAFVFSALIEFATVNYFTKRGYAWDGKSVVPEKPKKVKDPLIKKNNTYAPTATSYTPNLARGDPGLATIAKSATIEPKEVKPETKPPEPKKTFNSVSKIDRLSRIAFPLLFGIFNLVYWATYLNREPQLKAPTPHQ
- Assay type: functional

[
  {
    "Compound": "COc1ccc(C2C(=O)c3ccccc3C2=O)cc1",
    "AC50": "> 10 µM"
  },
  {
    "Compound": "CCCN1CC(NS(=O)(=O)N(CC)CC)CC2Cc3c(O)cccc3CC21 (centres undefined) [QUINAGOLIDE]",
    "AC50": "> 30 µM"
  },
  {
    "Compound": "C[C@@H]1C[C@H]2[C@@H]3C[C@H](F)C4=CC(=O)C=C[C@]4(C)[C@@]3(F)[C@@H](O)C[C@]2(C)[C@@]1(OC(=O)c1ccco1)C(=O)SCF [FLUTICASONE FUROATE]",
    "AC50": "> 10 µM"
  },
  {
    "Compound": "C[N+]1(C)CCC(=C(c2ccccc2)c2ccccc2)CC1",
    "AC50": "> 10 µM"
  }
]

###

- System Under Test: Progesterone receptor (Homo sapiens, UniProt P06401); further: assay procedure not described here
- Sequence (P06401 whole entry): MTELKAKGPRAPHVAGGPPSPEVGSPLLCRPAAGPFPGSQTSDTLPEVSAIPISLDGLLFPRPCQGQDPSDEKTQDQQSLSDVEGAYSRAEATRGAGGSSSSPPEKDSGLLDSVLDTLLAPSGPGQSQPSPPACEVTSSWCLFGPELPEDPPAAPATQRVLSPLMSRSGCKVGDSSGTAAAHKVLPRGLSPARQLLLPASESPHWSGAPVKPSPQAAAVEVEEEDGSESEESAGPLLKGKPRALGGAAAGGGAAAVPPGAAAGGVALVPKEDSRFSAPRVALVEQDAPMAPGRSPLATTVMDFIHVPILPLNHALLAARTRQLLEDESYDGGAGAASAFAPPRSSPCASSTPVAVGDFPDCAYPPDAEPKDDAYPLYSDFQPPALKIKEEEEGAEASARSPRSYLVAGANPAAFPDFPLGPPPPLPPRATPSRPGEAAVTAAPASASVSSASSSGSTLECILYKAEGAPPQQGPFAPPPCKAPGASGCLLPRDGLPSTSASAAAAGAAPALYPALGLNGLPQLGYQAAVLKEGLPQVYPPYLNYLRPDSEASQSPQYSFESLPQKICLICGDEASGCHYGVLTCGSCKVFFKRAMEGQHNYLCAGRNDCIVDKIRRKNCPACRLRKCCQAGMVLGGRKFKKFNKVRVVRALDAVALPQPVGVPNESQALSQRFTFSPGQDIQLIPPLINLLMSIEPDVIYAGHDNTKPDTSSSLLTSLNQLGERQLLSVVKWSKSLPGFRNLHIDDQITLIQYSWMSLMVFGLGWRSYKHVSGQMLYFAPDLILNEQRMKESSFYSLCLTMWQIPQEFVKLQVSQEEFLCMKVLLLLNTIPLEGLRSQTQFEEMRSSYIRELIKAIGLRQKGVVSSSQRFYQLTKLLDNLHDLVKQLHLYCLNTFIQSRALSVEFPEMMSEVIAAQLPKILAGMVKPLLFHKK
- Format: functional
Where a SMILES comes first, the peptide text is derived from it. [ ]: non-standard residue; d: D form. pGlu = O=C1CC[C@@H](C(=O)O)N1; Thz = O=C(O)[C@@H]1CSCN1
Reported values of AC50 for individual entries
Endpoint: AC50

[
  {
    "Compound": "CCOC(=O)c1c(CSc2ccccc2)n(C)c2cc(Br)c(O)c(CN(C)C)c12",
    "System Under Test": "Progesterone receptor (Homo sapiens, UniProt P06401)",
    "Endpoint": "AC50",
    "Obs Value": "> 30 µM"
  },
  {
    "Compound": "CCC1(c2ccc(N)cc2)CCC(=O)NC1=O (stereo not given) [AMINOGLUTETHIMIDE]",
    "System Under Test": "Progesterone receptor (Homo sapiens, UniProt P06401)",
    "Endpoint": "AC50",
    "Obs Value": "> 30 µM"
  },
  {
    "Compound": "S=P(N1CC1)(N1CC1)N1CC1",
    "System Under Test": "Progesterone receptor (Homo sapiens, UniProt P06401)",
    "Endpoint": "AC50",
    "Obs Value": "> 30 µM"
  },
  {
    "Compound": "Cc1ccccc1-n1c(CF)nc2ccc(N)cc2c1=O",
    "System Under Test": "Progesterone receptor (Homo sapiens, UniProt P06401)",
    "Endpoint": "AC50",
    "Obs Value": "> 30 µM"
  },
  {
    "Compound": "CCCN(CCC)S(=O)(=O)c1ccc(C(=O)O)cc1",
    "System Under Test": "Progesterone receptor (Homo sapiens, UniProt P06401)",
    "Endpoint": "AC50",
    "Obs Value": "> 10 µM"
  },
  {
    "Compound": "O=C(O)c1cccnc1Nc1cccc(C(F)(F)F)c1",
    "System Under Test": "Progesterone receptor (Homo sapiens, UniProt P06401)",
    "Endpoint": "AC50",
    "Obs Value": "> 10 µM"
  },
  {
    "Compound": "CNCCc1ccc(OC(=O)C(C)C)c(OC(=O)C(C)C)c1",
    "System Under Test": "Progesterone receptor (Homo sapiens, UniProt P06401)",
    "Endpoint": "AC50",
    "Obs Value": "> 30 µM"
  },
  {
    "Compound": "CC(=O)c1ccc(S(=O)(=O)NC(=O)NC2CCCCC2)cc1 [ACETOHEXAMIDE]",
    "System Under Test": "Progesterone receptor (Homo sapiens, UniProt P06401)",
    "Endpoint": "AC50",
    "Obs Value": "> 10 µM"
  },
  {
    "Compound": "CCC1(CCC(C)C)C(=O)NC(=O)NC1=O",
    "System Under Test": "Progesterone receptor (Homo sapiens, UniProt P06401)",
    "Endpoint": "AC50",
    "Obs Value": "> 10 µM"
  },
  {
    "Compound": "Oc1ccc(CCNCCCCCCNCCc2ccccc2)cc1O",
    "System Under Test": "Progesterone receptor (Homo sapiens, UniProt P06401)",
    "Endpoint": "AC50",
    "Obs Value": "> 30 µM"
  },
  {
    "Compound": "CC=CC1=C(C(=O)O)N2C(=O)[C@@H](NC(=O)[C@H](N)c3ccc(O)cc3)[C@H]2SC1",
    "System Under Test": "Progesterone receptor (Homo sapiens, UniProt P06401)",
    "Endpoint": "AC50",
    "Obs Value": "> 30 µM"
  },
  {
    "Compound": "C[N+](C)(C)CCOP(=O)([O-])OC[C@H](O)CO",
    "System Under Test": "Progesterone receptor (Homo sapiens, UniProt P06401)",
    "Endpoint": "AC50",
    "Obs Value": "> 30 µM"
  },
  {
    "Compound": "COc1ccc2cc(CCC(C)=O)ccc2c1",
    "System Under Test": "Progesterone receptor (Homo sapiens, UniProt P06401)",
    "Endpoint": "AC50",
    "Obs Value": "> 10 µM"
  },
  {
    "Compound": "Clc1ccc(CCC(Cn2ccnc2)Sc2c(Cl)cccc2Cl)cc1 (stereo not given)",
    "System Under Test": "Progesterone receptor (Homo sapiens, UniProt P06401)",
    "Endpoint": "AC50",
    "Obs Value": "9.1 µM"
  },
  {
    "Compound": "COc1cc(C(=O)OCc2cccc(COC(=O)c3cc(OC)c(OC)c(OC)c3)n2)cc(OC)c1OC",
    "System Under Test": "Progesterone receptor (Homo sapiens, UniProt P06401)",
    "Endpoint": "AC50",
    "Obs Value": "> 30 µM"
  },
  {
    "Compound": "CCc1nc(N)nc(N)c1-c1ccc(Cl)cc1",
    "System Under Test": "Progesterone receptor (Homo sapiens, UniProt P06401)",
    "Endpoint": "AC50",
    "Obs Value": "> 10 µM"
  },
  {
    "Compound": "CCOC(=O)c1ncn2c1CN(C)C(=O)c1cc(F)ccc1-2",
    "System Under Test": "Progesterone receptor (Homo sapiens, UniProt P06401)",
    "Endpoint": "AC50",
    "Obs Value": "> 30 µM"
  },
  {
    "Compound": "O=C(c1cc(Cc2n[nH]c(=O)c3ccccc23)ccc1F)N1CCN(C(=O)C2CC2)CC1",
    "System Under Test": "Progesterone receptor (Homo sapiens, UniProt P06401)",
    "Endpoint": "AC50",
    "Obs Value": "> 30 µM"
  },
  {
    "Compound": "COc1ccc(CN2CCN(C(c3ccc(F)cc3)c3ccc(F)cc3)CC2)c(OC)c1OC",
    "System Under Test": "Progesterone receptor (Homo sapiens, UniProt P06401)",
    "Endpoint": "AC50",
    "Obs Value": "> 30 µM"
  },
  {
    "Compound": "CC(c1cc2ccccc2s1)N(O)C(N)=O (stereo not given)",
    "System Under Test": "Progesterone receptor (Homo sapiens, UniProt P06401)",
    "Endpoint": "AC50",
    "Obs Value": "> 30 µM"
  },
  {
    "Compound": "COc1cc(C(=O)NC2CCCNC2)cc(OC)c1OC (stereo not given) [TROXIPIDE]",
    "System Under Test": "Progesterone receptor (Homo sapiens, UniProt P06401)",
    "Endpoint": "AC50",
    "Obs Value": "> 30 µM"
  },
  {
    "Compound": "CC(C)(Oc1ccc(CCNC(=O)c2ccc(Cl)cc2)cc1)C(=O)O [BEZAFIBRATE]",
    "System Under Test": "Progesterone receptor (Homo sapiens, UniProt P06401)",
    "Endpoint": "AC50",
    "Obs Value": "> 10 µM"
  },
  {
    "Compound": "CO/N=C(\\C(=O)N[C@@H]1C(=O)N2C(C(=O)O)=C(CSc3nc(=O)c(=O)[nH]n3C)CS[C@H]12)c1csc(N)n1",
    "System Under Test": "Progesterone receptor (Homo sapiens, UniProt P06401)",
    "Endpoint": "AC50",
    "Obs Value": "23 µM"
  },
  {
    "Compound": "CCOC(=O)[C@@H](N)Cc1ccc(-c2cc(O[C@H](c3ccc(Cl)cc3-n3ccc(C)n3)C(F)(F)F)nc(N)n2)cc1",
    "System Under Test": "Progesterone receptor (Homo sapiens, UniProt P06401)",
    "Endpoint": "AC50",
    "Obs Value": "> 30 µM"
  },
  {
    "Compound": "Cc1cc(C)nc(NS(=O)(=O)c2ccc(N)cc2)n1",
    "System Under Test": "Progesterone receptor (Homo sapiens, UniProt P06401)",
    "Endpoint": "AC50",
    "Obs Value": "> 10 µM"
  },
  {
    "Compound": "O=C(NCCO[N+](=O)[O-])c1cccnc1",
    "System Under Test": "Progesterone receptor (Homo sapiens, UniProt P06401)",
    "Endpoint": "AC50",
    "Obs Value": "> 30 µM"
  },
  {
    "Compound": "OC[C@H]1O[C@@H](n2cnc3c2NC=NC[C@H]3O)C[C@@H]1O",
    "System Under Test": "Progesterone receptor (Homo sapiens, UniProt P06401)",
    "Endpoint": "AC50",
    "Obs Value": "> 30 µM"
  },
  {
    "Compound": "CC(C)N(CCCCOCC(=O)O)c1cnc(-c2ccccc2)c(-c2ccccc2)n1",
    "System Under Test": "Progesterone receptor (Homo sapiens, UniProt P06401)",
    "Endpoint": "AC50",
    "Obs Value": "> 30 µM"
  },
  {
    "Compound": "CCOC(=O)c1ccc(N)cc1",
    "System Under Test": "Progesterone receptor (Homo sapiens, UniProt P06401)",
    "Endpoint": "AC50",
    "Obs Value": "> 10 µM"
  },
  {
    "Compound": "Cn1cc(C(=O)[C@@H]2CCc3nc[nH]c3C2)c2ccccc21",
    "System Under Test": "Progesterone receptor (Homo sapiens, UniProt P06401)",
    "Endpoint": "AC50",
    "Obs Value": "> 30 µM"
  },
  {
    "Compound": "CC/C=C\\C/C=C\\C/C=C\\C/C=C\\C/C=C\\CCCC(=O)OCC",
    "System Under Test": "Progesterone receptor (Homo sapiens, UniProt P06401)",
    "Endpoint": "AC50",
    "Obs Value": "3.5 µM"
  },
  {
    "Compound": "CCCN1CCCC[C@H]1C(=O)Nc1c(C)cccc1C",
    "System Under Test": "Progesterone receptor (Homo sapiens, UniProt P06401)",
    "Endpoint": "AC50",
    "Obs Value": "> 30 µM"
  },
  {
    "Compound": "CC(C)Cc1ccc([C@H](C)C(=O)O)cc1",
    "System Under Test": "Progesterone receptor (Homo sapiens, UniProt P06401)",
    "Endpoint": "AC50",
    "Obs Value": "> 30 µM"
  },
  {
    "Compound": "c1ccc(C2(N3CCCCC3)CCCCC2)cc1",
    "System Under Test": "Progesterone receptor (Homo sapiens, UniProt P06401)",
    "Endpoint": "AC50",
    "Obs Value": "> 30 µM"
  },
  {
    "Compound": "Cc1ccccc1N1C(=O)c2cc(S(N)(=O)=O)c(Cl)cc2NC1C (stereo not given)",
    "System Under Test": "Progesterone receptor (Homo sapiens, UniProt P06401)",
    "Endpoint": "AC50",
    "Obs Value": "> 10 µM"
  },
  {
    "Compound": "Cc1cccc(C)c1NC(=O)CC12CCCN1CCC2 [PILSICAINIDE]",
    "System Under Test": "Progesterone receptor (Homo sapiens, UniProt P06401)",
    "Endpoint": "AC50",
    "Obs Value": "> 30 µM"
  },
  {
    "Compound": "C=CC[N+]1([C@H]2C[C@H]3[C@@H]4CC[C@H]5C[C@H](O)[C@@H](N6CCOCC6)C[C@]5(C)[C@H]4CC[C@]3(C)[C@H]2OC(C)=O)CCCC1",
    "System Under Test": "Progesterone receptor (Homo sapiens, UniProt P06401)",
    "Endpoint": "AC50",
    "Obs Value": "> 30 µM"
  },
  {
    "Compound": "O=C1c2cccc3c2[C@H](CCC3)CN1[C@@H]1CN2CCC1CC2",
    "System Under Test": "Progesterone receptor (Homo sapiens, UniProt P06401)",
    "Endpoint": "AC50",
    "Obs Value": "> 30 µM"
  },
  {
    "Compound": "OC[C@H]1O[C@@H](Oc2cc(O)cc(/C=C/c3ccc(O)cc3)c2)[C@H](O)[C@@H](O)[C@@H]1O",
    "System Under Test": "Progesterone receptor (Homo sapiens, UniProt P06401)",
    "Endpoint": "AC50",
    "Obs Value": "> 30 µM"
  },
  {
    "Compound": "O=C1CC[C@@H](C(=O)N2CSC[C@H]2C(=O)O)N1 [PIDOTIMOD] ([pGlu]-[Thz]-OH)",
    "System Under Test": "Progesterone receptor (Homo sapiens, UniProt P06401)",
    "Endpoint": "AC50",
    "Obs Value": "> 30 µM"
  }
]
